Source listed as the supplement of paper PMC12338614.

B1: library; numbered along this chain (parent)
chain: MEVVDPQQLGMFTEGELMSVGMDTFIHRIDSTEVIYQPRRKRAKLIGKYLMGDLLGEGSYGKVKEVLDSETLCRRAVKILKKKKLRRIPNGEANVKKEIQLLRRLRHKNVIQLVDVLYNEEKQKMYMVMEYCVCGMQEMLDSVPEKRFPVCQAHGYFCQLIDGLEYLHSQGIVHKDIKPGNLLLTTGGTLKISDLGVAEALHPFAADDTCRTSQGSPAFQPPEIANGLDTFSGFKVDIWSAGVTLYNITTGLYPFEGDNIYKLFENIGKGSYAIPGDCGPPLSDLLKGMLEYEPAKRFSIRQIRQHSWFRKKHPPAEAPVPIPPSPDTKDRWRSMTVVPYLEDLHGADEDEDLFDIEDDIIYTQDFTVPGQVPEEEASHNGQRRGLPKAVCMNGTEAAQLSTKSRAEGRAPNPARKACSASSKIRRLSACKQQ

- Variants of: B1
- Protocol details: STK11 functional score (HeLa growth suppression), rescaled enrichment; synonymous median = 1, nonsense median = 0 (normalised score)
- Test context: with HeLa; variant type: missense
Attribute: STK11 functional score
The answer should be a number; do not append a unit.

| Mutation annotation | STK11 functional score |
| --- | --- |
| L17G | 1.53 |

[Q] Given the variant `R304I` , what is its reported STK11 functional score?
[A] 0.364

[Q] // STK11 functional score lookup, key: `V143H`
[A] 1.44

[Q] What does the data say about its STK11 functional score? Entry: `R147I`
[A] 1.22

[Q] Data request, read-out STK11 functional score, for `L341C`
[A] 1.38

[Q] # input variant: `Y49H` ; wanted: its STK11 functional score
[A] 1.11

[Q] Consider the variant shown here: `N119F` What is its recorded STK11 functional score?
[A] 1.16

[Q] If you can, please state the reported STK11 functional score value of `Q112V` .
[A] 1.01
